PROCEDURE DETAILS: Pharmacokinetics, plasma and brain levels by HPLC-PDA
PROTOCOL CONDITIONS: rat, in vivo, ip, 50 mg/kg, BB=Cbrain/Cplasma, rats, ip 50 mg/kg, at ~equilibrium point
MEASURE NAME: Kp at 10 min
Would you mind answering with just the numeric figure?

Reported Kp at 10 min for Fc1ccc(CCCCN2CCN(c3ccccn3)CC2)cc1 was 12.1

----------
PROCEDURE DETAILS: Pharmacokinetics, plasma and brain levels by HPLC-PDA
PROTOCOL CONDITIONS: rat, in vivo, ip, 50 mg/kg, t1/2, elimination, plasma, rats, ip 50 mg/kg
MEASURE NAME: half-life

Recorded result, Fc1ccc(CCCCN2CCN(c3ccccn3)CC2)cc1 [SYA16263] , half-life: 44.4 to 58.8 min
